- method-notes: DSC, FT-IR/ATR and XRPD compatibility of Cyclobenzaprine HCl with additional excipients, mixed (A) and milled (B) 1:1 mixtures (Example 2)
- Type: physicochemical
- condition-info: mixture A, mechanical mixing only, DSC
quantity-measured: Interactions between Cyclobenzaprine HCl and excipients, Mixture 1:1 (mixed)

[
  {
    "compound": "O.O.O.O.O.O.O.O=P([O-])([O-])O.[Na+].[Na+] [Di Sodium phosphate heptahydrate]",
    "reported-result": "Chemical"
  },
  {
    "compound": "OC[C@@H](O)[C@@H](O)[C@H](O)[C@@H](O)CO",
    "reported-result": "Chemical"
  }
]

====

- method-notes: DSC, FT-IR/ATR and XRPD compatibility of Cyclobenzaprine HCl with additional excipients, mixed (A) and milled (B) 1:1 mixtures (Example 2)
- Assay type: physicochemical
- condition-info: mixture B, ground in agate mortar, DSC
quantity-measured: Interactions between Cyclobenzaprine HCl and excipients, Mixture 1:1 (milled)

[
  {
    "compound": "O.O.O.O.O.O.O.O=P([O-])([O-])O.[Na+].[Na+] [Di Sodium phosphate heptahydrate]",
    "reported-result": "Chemical"
  },
  {
    "compound": "OC[C@@H](O)[C@@H](O)[C@H](O)[C@@H](O)CO",
    "reported-result": "Chemical"
  }
]
